- tested_target: Sialate O-acetylesterase (Homo sapiens)
- assay_summary: blockers of sialate O-acetylesterase activity-probe labeling – biochemical, fluorescence polarization, FP-Rh probe, 1536-well HTS, primary screen (AID 1053197)
- assay_context: SIAE FP-Rh probe binding, at 9.66 µM
In all, about 370,000 compounds went through this assay and about 2,600 (0.7%) were called active.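 Rule for the calls: active = inhibition above a cutoff: mean of compounds within the control limits plus 3 SD of those (cut at about 17% in these data); inactive = the rest.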 The entries come from a sample that favours actives as a whole.
Outcomes: active, inactive

{"columns": ["compound", "group"],
 "data": [
  ["Cc1ccnc(-n2c(C)cc(/C=C3\\C(=O)NC(=S)N(C)C3=O)c2C)c1", "inactive"],
  ["CCOC(=O)C1(CCc2ccccc2)CCN(Cc2ccco2)CC1", "inactive"],
  ["c1cc2c(c(NC3=NCCCS3)c1)CCCC2", "inactive"],
  ["CO[C@H]([C@H](C)/C=C/N(C)C=O)[C@@H](C)C(=O)CC[C@H](C)[C@H](O)[C@H](C)[C@H]1OC(=O)/C=C/C(C)=C/[C@H](O)[C@H](OC)C[C@@H]2C=CC[C@@H](C[C@H](OC)[C@@]3(CO3)[C@@H](OC)C[C@@H](OC)[C@@H]1C)O2", "inactive"],
  ["Cc1cc(C=C2C(=O)NC(=O)NC2=O)c(C)n1-c1ccncc1", "active"],
  ["COC(=O)C1=C(c2ccc(F)cc2OCc2ccccc2)C[C@@H]2CC[C@H]1N2C(=O)NCc1ccc2[nH]ccc2c1", "inactive"],
  ["O=S(=O)(c1ccccc1)N1CCC2CCNC2C1 (centres undefined)", "inactive"],
  ["Cc1cccc(-n2c(O)c(/C=N/N3CCOCC3)c(=O)[nH]c2=S)c1", "inactive"],
  ["Cc1cc(C(=O)OCC(=O)Nc2c(F)cccc2F)c(C)n1C1CC1", "inactive"]
]}
